Origin of measurements: patent US11566022B2

# Tested On: HiBit-WIZ fusion protein (Homo sapiens, UniProt O95785+Q96SW2)
# Sequence (O95785 whole entry, the tested form may be a part): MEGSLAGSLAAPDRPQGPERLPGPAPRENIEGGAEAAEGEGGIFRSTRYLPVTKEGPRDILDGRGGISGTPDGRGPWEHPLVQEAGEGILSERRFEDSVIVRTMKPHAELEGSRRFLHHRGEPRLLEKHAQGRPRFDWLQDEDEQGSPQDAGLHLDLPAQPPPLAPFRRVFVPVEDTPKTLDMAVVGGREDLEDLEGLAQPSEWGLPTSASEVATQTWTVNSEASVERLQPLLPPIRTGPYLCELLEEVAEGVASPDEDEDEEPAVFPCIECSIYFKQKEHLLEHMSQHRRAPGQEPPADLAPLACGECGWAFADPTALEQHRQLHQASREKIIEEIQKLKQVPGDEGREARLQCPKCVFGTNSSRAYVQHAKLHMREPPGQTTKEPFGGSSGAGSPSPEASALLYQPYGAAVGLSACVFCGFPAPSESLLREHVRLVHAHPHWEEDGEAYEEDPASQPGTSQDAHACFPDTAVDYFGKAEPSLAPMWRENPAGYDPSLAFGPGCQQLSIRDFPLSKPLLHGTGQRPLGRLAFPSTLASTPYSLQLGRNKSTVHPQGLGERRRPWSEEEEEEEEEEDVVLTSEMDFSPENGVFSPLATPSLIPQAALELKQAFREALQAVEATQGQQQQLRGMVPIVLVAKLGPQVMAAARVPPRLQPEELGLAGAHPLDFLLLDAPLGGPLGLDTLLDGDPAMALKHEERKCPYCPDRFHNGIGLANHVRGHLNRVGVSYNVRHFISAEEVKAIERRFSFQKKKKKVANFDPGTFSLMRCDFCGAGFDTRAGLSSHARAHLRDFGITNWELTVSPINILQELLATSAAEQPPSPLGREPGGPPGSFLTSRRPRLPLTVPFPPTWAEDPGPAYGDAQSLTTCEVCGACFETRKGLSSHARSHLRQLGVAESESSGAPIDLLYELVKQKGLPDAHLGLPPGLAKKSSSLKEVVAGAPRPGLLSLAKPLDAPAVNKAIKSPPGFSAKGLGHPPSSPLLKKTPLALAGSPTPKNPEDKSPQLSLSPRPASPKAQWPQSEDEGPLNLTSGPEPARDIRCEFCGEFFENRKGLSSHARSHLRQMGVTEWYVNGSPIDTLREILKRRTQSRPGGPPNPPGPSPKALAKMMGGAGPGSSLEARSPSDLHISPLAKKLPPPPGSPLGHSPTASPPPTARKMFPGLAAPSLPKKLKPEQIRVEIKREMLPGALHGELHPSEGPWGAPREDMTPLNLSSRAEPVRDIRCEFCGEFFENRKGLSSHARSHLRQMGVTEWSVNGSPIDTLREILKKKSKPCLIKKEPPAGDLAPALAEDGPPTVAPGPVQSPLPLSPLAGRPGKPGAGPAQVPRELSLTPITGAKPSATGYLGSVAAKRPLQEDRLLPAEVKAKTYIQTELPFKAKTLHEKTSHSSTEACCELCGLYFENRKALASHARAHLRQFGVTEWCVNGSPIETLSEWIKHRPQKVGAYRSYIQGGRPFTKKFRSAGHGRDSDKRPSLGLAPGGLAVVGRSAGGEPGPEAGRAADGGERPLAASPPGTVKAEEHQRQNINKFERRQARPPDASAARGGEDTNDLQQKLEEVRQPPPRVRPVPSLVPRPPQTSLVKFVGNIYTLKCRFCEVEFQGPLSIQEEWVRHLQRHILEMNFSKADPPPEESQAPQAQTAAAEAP
# Sequence (Q96SW2 whole entry, the tested form may be a part): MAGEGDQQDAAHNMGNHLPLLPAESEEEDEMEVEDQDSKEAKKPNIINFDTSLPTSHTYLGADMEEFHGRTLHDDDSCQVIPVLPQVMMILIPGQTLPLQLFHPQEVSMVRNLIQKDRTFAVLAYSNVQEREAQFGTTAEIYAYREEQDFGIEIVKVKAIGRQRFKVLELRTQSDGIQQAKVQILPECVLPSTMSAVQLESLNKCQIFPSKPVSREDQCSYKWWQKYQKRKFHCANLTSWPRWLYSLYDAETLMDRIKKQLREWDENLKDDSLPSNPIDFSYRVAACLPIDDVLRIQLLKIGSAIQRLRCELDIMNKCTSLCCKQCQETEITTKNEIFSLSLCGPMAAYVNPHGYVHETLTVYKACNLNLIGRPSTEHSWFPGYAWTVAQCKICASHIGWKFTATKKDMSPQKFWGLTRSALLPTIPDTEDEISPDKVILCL
# Sequence (Q16531 whole entry partner, the tested form may be a part): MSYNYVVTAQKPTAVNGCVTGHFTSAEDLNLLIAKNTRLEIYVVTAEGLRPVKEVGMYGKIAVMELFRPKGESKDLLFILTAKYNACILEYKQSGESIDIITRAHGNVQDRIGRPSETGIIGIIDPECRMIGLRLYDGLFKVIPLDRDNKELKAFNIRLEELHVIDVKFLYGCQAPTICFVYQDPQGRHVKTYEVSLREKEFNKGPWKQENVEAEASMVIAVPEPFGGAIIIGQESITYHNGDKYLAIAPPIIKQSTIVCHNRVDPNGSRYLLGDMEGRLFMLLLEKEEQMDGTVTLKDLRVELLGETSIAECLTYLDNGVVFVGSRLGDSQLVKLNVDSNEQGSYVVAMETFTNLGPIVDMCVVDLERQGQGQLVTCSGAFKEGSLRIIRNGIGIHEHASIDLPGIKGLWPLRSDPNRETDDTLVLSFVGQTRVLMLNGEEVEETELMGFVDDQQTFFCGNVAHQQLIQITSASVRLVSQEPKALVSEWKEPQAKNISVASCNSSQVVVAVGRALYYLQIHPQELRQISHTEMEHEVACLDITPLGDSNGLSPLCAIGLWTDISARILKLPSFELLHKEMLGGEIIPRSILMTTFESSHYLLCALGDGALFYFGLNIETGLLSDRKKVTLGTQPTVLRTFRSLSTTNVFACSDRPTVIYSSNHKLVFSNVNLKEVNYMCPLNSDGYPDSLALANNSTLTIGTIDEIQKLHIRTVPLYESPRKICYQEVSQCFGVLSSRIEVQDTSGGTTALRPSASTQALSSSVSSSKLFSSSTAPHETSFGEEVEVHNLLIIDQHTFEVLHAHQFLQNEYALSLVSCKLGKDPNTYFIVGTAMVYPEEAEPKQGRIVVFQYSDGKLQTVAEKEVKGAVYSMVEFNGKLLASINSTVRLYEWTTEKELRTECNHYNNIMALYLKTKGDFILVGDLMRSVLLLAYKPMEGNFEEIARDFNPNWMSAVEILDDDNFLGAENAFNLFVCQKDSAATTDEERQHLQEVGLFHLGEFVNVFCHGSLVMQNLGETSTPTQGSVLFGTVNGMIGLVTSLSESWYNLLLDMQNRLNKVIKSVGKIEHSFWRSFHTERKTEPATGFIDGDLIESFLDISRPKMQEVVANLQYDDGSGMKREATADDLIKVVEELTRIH
# Protocol Text: Quantification of WIZ protein levels in HiBit tag fusion protein assay (WIZ HiBit assay in 293T cells)
# Format: cell-based
# Parameters: dose or concentration left out as unconfirmed
# Condition: HEK-293T, 100 minus Amax; 293T cells; read-out: % degradation of WIZ (100-Amax)
Please provide measured Dmax for the entries that follow.
Answer in %, number only, no unit symbol.

Query: Need Dmax of CN(C)CC(=O)N1CCCC[C@H]1COc1ccc2c(c1)CN(C1CCC(=O)NC1=O)C2=O (stereo partly drawn) [Compound I-72jk] , thanks.
Response: 7.2

Query: Need Dmax of COc1ccc(CN2CCCC[C@@H]2COc2ccc3c(c2)CN(C2CCC(=O)NC2=O)C3=O)c(OC)c1 (stereo partly drawn) , thanks.
Response: 88.9

Query: Need Dmax of O=C1CCC(N2Cc3cc(OC[C@@H]4CCCCN4C(=O)c4csc(-c5ccccc5)n4)ccc3C2=O)C(=O)N1 (stereo partly drawn) [Compound I-72du] , thanks.
Response: 23.6

Query: Need Dmax of CN(C)Cc1ncc(-c2ccc(Oc3cc(Cl)cnc3CN3CCCC[C@H]3COc3ccc4c(c3)CN(C3CCC(=O)NC3=O)C4=O)cc2)n1C (stereo partly drawn) [Compound I-50z] , thanks.
Response: 79.2

Query: Need Dmax of O=C1CCC(N2Cc3cc(OC[C@H]4CCCCN4Cc4cc(F)c(F)c(F)c4)ccc3C2=O)C(=O)N1 (stereo partly drawn) , thanks.
Response: 93.7

Query: Need Dmax of O=C1CCC(N2Cc3cc(OC[C@@H]4CCCCN4C(=O)c4ccnnc4)ccc3C2=O)C(=O)N1 (stereo partly drawn) [Compound I-72kc] , thanks.
Response: 9.4

Query: Need Dmax of Cn1nc(CN2CCCC[C@@H]2COc2ccc3c(c2)CN(C2CCC(=O)NC2=O)C3=O)cc1-c1ccccc1 (stereo partly drawn) [Compound I-50dm] , thanks.
Response: 100

Query: Need Dmax of O=C1CCC(N2Cc3cc(OC[C@H]4CCCCN4Cc4nccn4Cc4ccccc4)ccc3C2=O)C(=O)N1 (stereo partly drawn) [Compound I-50ax] , thanks.
Response: 92.5

Query: Need Dmax of COc1ccc(C(=O)N2CCCC[C@H]2COc2ccc3c(c2)CN(C2CCC(=O)NC2=O)C3=O)nn1 (stereo partly drawn) [Compound I-72gm] , thanks.
Response: 6.8

Query: Need Dmax of O=C1CCC(N2Cc3cc(OC[C@H]4CCCCN4Cc4ccc(C5CCN(CC6COC6)CC5)cc4)ccc3C2=O)C(=O)N1 (stereo partly drawn) , thanks.
Response: 67.5

Query: Need Dmax of CCN(CC)c1ccc(CN2CCCC[C@H]2COc2ccc3c(c2)CN(C2CCC(=O)NC2=O)C3=O)cn1 (stereo partly drawn) [Compound I-50as] , thanks.
Response: 84.3

Query: Need Dmax of O=C1CCC(N2Cc3cc(OC[C@H]4CCCCN4Cc4ncccc4O)ccc3C2=O)C(=O)N1 (stereo partly drawn) [Compound I-50ej] , thanks.
Response: 17.2

Query: Need Dmax of O=C1CCC(N2Cc3cc(OC[C@H]4CCCCN4Cc4ccc(N5CCCC5)nc4)ccc3C2=O)C(=O)N1 (stereo partly drawn) [Compound I-50es] , thanks.
Response: 99.5

Query: Need Dmax of Cc1nnc(-c2ccc(CN3CCCC[C@H]3COc3ccc4c(c3)CN(C3CCC(=O)NC3=O)C4=O)cc2)o1 (stereo partly drawn) [Compound I-50i] , thanks.
Response: 28.8

Query: Need Dmax of CCN1CCC[C@@H](C(=O)N2CCCC[C@H]2COc2ccc3c(c2)CN(C2CCC(=O)NC2=O)C3=O)C1 (stereo partly drawn) [Compound I-72it] , thanks.
Response: 5.9

Query: Need Dmax of Cc1noc(C)c1CN1CCCC[C@H]1COc1ccc2c(c1)CN(C1CCC(=O)NC1=O)C2=O (stereo partly drawn) [Compound I-50ao] , thanks.
Response: 96.8

Query: Need Dmax of Cc1nc(C)c(CN2CCCC[C@@H]2COc2ccc3c(c2)CN(C2CCC(=O)NC2=O)C3=O)s1 (stereo partly drawn) , thanks.
Response: 97.3

Query: Need Dmax of CCCc1cc(C(=O)N2CCCC[C@H]2COc2ccc3c(c2)CN(C2CCC(=O)NC2=O)C3=O)no1 (stereo partly drawn) [Compound I-72au] , thanks.
Response: 39.9

Query: Need Dmax of O=C1CCC(N2Cc3cc(OC[C@H]4CCCCN4Cc4ncc[nH]4)ccc3C2=O)C(=O)N1 (stereo partly drawn) [Compound I-50et] , thanks.
Response: 49.1

Query: Need Dmax of Nc1ncc(CN2CCCC[C@H]2COc2ccc3c(c2)CN(C2CCC(=O)NC2=O)C3=O)cn1 (stereo partly drawn) [Compound I-50be] , thanks.
Response: 41.9

Query: Need Dmax of O=C1CCC(N2Cc3cc(OC[C@H]4CCCCN4Cc4cccc5c4NCCO5)ccc3C2=O)C(=O)N1 (stereo partly drawn) , thanks.
Response: 78.7

Query: Need Dmax of O=C1CCC(N2Cc3cc(OC[C@@H]4CCCCN4Cc4cccc(O)c4O)ccc3C2=O)C(=O)N1 (stereo partly drawn) [Compound I-50bx] , thanks.
Response: 56.4

Query: Need Dmax of CN1CCCC1C(=O)N1CCCC[C@@H]1COc1ccc2c(c1)CN(C1CCC(=O)NC1=O)C2=O (stereo partly drawn) [Compound I-72dd] , thanks.
Response: 19.5

Query: Need Dmax of O=C1CCC(N2Cc3cc(OC[C@@H]4CCCCN4C(=O)C45CC(F)(C4)C5)ccc3C2=O)C(=O)N1 (stereo partly drawn) [Compound I-72iv] , thanks.
Response: 2.2

Query: Need Dmax of Cc1nccn1-c1ccc(CN2CCCC[C@@H]2COc2ccc3c(c2)CN(C2CCC(=O)NC2=O)C3=O)cc1 (stereo partly drawn) [Compound I-50ew] , thanks.
Response: 99.3

Query: Need Dmax of COc1c(F)cc(C(=O)N2CCCC[C@H]2COc2ccc3c(c2)CN(C2CCC(=O)NC2=O)C3=O)cc1F (stereo partly drawn) [Compound I-72eg] , thanks.
Response: 72.1

Query: Need Dmax of Cc1nn(-c2ccccc2)c(C)c1C(=O)N1CCCC[C@H]1COc1ccc2c(c1)CN(C1CCC(=O)NC1=O)C2=O (stereo partly drawn) [Compound I-72gs] , thanks.
Response: 57.9

Query: Need Dmax of Cc1cc(CN2CCCC[C@@H]2COc2ccc3c(c2)CN(C2CCC(=O)NC2=O)C3=O)no1 (stereo partly drawn) [Compound I-50eq] , thanks.
Response: 88.4

Query: Need Dmax of Cc1cccc(-c2n[nH]cc2CN2CCCC[C@@H]2COc2ccc3c(c2)CN(C2CCC(=O)NC2=O)C3=O)c1 (stereo partly drawn) [Compound I-50dj] , thanks.
Response: 99.7

Query: Need Dmax of O=C1CCC(N2Cc3cc(OC[C@@H]4CCCCN4Cc4ccc(-n5nccn5)cc4)ccc3C2=O)C(=O)N1 (stereo partly drawn) [Compound I-50ai] , thanks.
Response: 77.8
